Test: The compound was tested for binding activity against Cholecystokinin type B receptor from rat […] tissue using [125]BH CCK-8 as radioligand
Property label: IC50 (nM)
Write the answer as a number in nM, unit excluded.

**Q:** Need IC50 of CN1C(=O)[C@@H](NC(=O)Nc2ccc(-c3nc(=O)o[nH]3)cc2)N=C(c2ccccc2)c2ccccc21 , thanks.
**A:** 0.266

**Q:** Fill in: IC50 of CN1C(=O)[C@H](NC(=O)Nc2ccc(-c3nnn[nH]3)cc2)N=C(c2ccccc2)c2ccccc21 is ___
**A:** 250

**Q:** Dear colleague, I am looking for the recorded IC50 of the following compound: CN1C(=O)[C@@H](NC(=O)Nc2ccc(-c3nnn[nH]3)cc2)N=C(c2ccccc2)c2ccccc21
**A:** 1.02

**Q:** What value of IC50 has been reported for the following compound? CN1C(=O)[C@H](NC(=O)Nc2ccc(-c3nc(=O)o[nH]3)cc2)N=C(c2ccccc2)c2ccccc21
**A:** 56.4

**Q:** Quick one: IC50 for CN1C(=O)[C@H](NC(=O)Nc2ccc(C(=O)O)cc2)N=C(c2ccccc2)c2ccccc21 ?
**A:** 6.7

**Q:** What measured IC50 goes with CC(C)CN1C(=O)[C@@H](NC(=O)Nc2ccc(-c3nnn[nH]3)cc2)N=C(c2ccccc2)c2ccccc21 ?
**A:** 0.142

**Q:** Need IC50 of CC(C)CN1C(=O)[C@H](NC(=O)Nc2ccc(-c3nnn[nH]3)cc2)N=C(c2ccccc2)c2ccccc21 , thanks.
**A:** 23.8
